Where a name gives a salt, the structure may show the parent alone.
For E. coli Juhl A15119, measured MIC is reported for the entries below.
Give bare numbers, in mg/L.

Hi team, please reply with MIC for each item in this list.
1. CN(C)Cc1ccc[n+](CC2=C(C(=O)[O-])N3C(=O)C(NC(=O)[C@H](NC(=O)c4cnc5cccnc5c4O)c4ccccc4)C3SC2)c1 (stereo partly shown) [BB-S 676]
2. CN(C)Cc1cc[n+](CC2=C(C(=O)[O-])N3C(=O)C(NC(=O)[C@H](NC(=O)c4cnc5cccnc5c4O)c4ccc(O)cc4)C3SC2)cc1 (stereo partly shown) [BB-S 669, Hydrochloride]
3. CN(C)Cc1ccc[n+](CC2=C(C(=O)[O-])N3C(=O)C(NC(=O)[C@H](NC(=O)c4cnc5cccnc5c4O)c4ccc(O)cc4)C3SC2)c1 (stereo partly shown) [BB-S 651, Hydrochloride]
4. CC1(C)S[C@@H]2[C@H](NC(=O)C(C(=O)O)c3ccccc3)C(=O)N2[C@H]1C(=O)O (stereo partly shown) [Carbenicillin, reference compound]

## Output
1. 12.5
2. 1.6
3. 6.3
4. 3.1

----------
Assay: Additional mouse blood levels after intramuscular administration (Table 4)
Format: in vivo
Conditions: 20 mg/kg, mice, im, dose 20, 1/2 hour, read-out: Blood level
Structures can show the parent of a compound that is named as a salt.
Answer each item with its documented concentration at 0.5 h.
Answers are plain numbers, in ng/mL.

# molecule, concentration at 0.5 h / ng/mL
records = [
    ("CN(C)Cc1ccc[n+](CC2=C(C(=O)[O-])N3C(=O)C(NC(=O)[C@H](NC(=O)c4cnc5cccnc5c4O)c4ccc(O)cc4)C3SC2)c1 (some centres unmarked) [BB-S 651, Hydrochloride]", 7400),
]

# input for lookup
## Input Quick one: give measured concentration at 0.5 h for CCN1CCN(C(=O)N[C@@H](C(=O)N[C@@H]2C(=O)N3C(C(=O)O)=C(CSc4nnnn4C)CS[C@H]23)c2ccc(O)cc2)C(=O)C1=O [Cefoperazone, reference compound]
## Output 6300

----------
Assay: Additional mouse blood levels after intramuscular administration (Table 4)
Format: in vivo
Conditions: 10 mg/kg, mice, im, dose 10, 2 hour, read-out: Blood level
Structures can show the parent of a compound that is named as a salt.
Answer each item with its documented concentration at 2 h.

# compound, concentration at 2 h
records = [
    ("CCN1CCN(C(=O)N[C@@H](C(=O)N[C@@H]2C(=O)N3C(C(=O)O)=C(CSc4nnnn4C)CS[C@H]23)c2ccc(O)cc2)C(=O)C1=O [Cefoperazone, reference compound]", "< 800 ng/mL"),
]

# input for lookup
## Input Quick one: give measured concentration at 2 h for CN(C)Cc1ccc[n+](CC2=C(C(=O)[O-])N3C(=O)C(NC(=O)[C@H](NC(=O)c4cnc5cccnc5c4O)c4ccc(O)cc4)C3SC2)c1 (some centres unmarked) [BB-S 651, Hydrochloride]
## Output < 800 ng/mL

----------
Test system: Ps. aeruginosa A15150
Assay: MIC, serial two-fold agar dilution (Table 1)
Assay type: cell-based
Settings: Pseudomonas aeruginosa, Mueller-Hinton agar
Where a name gives a salt, the structure may show the parent alone.
measurement-type: MIC (mg/L)
Give bare numbers, in mg/L.

Consider the worked cases shown below.
# compound, MIC (mg/L)
rows = [
    ("CN(C)Cc1ccc[n+](CC2=C(C(=O)[O-])N3C(=O)C(NC(=O)[C@H](NC(=O)c4cnc5cccnc5c4O)c4ccccc4)C3SC2)c1 (stereo partly shown) [BB-S 676]", 1.6),
    ("CN(C)Cc1cc[n+](CC2=C(C(=O)[O-])N3C(=O)C(NC(=O)[C@H](NC(=O)c4cnc5cccnc5c4O)c4ccc(O)cc4)C3SC2)cc1 (stereo partly shown) [BB-S 669, Hydrochloride]", 0.8),
    ("CC1(C)S[C@@H]2[C@H](NC(=O)C(C(=O)O)c3ccccc3)C(=O)N2[C@H]1C(=O)O (stereo partly shown) [Carbenicillin, reference compound]", 25),
]

# input for lookup
## Input Quick one: give measured MIC for CN(C)Cc1ccc[n+](CC2=C(C(=O)[O-])N3C(=O)C(NC(=O)[C@H](NC(=O)c4cnc5cccnc5c4O)c4ccc(O)cc4)C3SC2)c1 (stereo partly shown) [BB-S 651, Hydrochloride]
## Output 0.8
